B1: CPEB3 Ribozyme (parent)
chain: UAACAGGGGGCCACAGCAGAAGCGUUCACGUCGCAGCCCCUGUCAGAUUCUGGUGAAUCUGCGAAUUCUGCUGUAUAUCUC

- Variants of: B1
- Assay explanation: self-cleavage, relative activity (ratio to wild type); higher = more cleavage; in vitro, sequencing
Could you please classify the records by self-cleavage using these ranges: I (below 0.3), II (0.3 to below 0.6), III (0.6 or more)

Query: Quick check: band for A56G A77G
Result: III

Query: Quick check: band for G6A A13U
Result: I

Query: Quick check: band for U1A U58C
Result: III

Query: Quick check: band for A3U U31G
Result: III

Query: Quick check: band for G9U A45G
Result: I

Query: Quick check: band for A56G G61U
Result: III

Query: Quick check: band for U48C G55C
Result: II

Query: Quick check: band for C59G U60C
Result: I

Query: Quick check: band for A28C A65G
Result: I

Query: Quick check: band for U26C U48C
Result: II

Query: Quick check: band for U54C G70A
Result: II
